B1: ESR2 (parent)
chain: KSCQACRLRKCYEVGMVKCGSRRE

Variants of: B1
procedure-details: protein stability index of a GFP-peptide fusion (GPS, HEK-293T) (PSI 1-6); higher = more stable;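 note: lentivirally expressed fusions sorted by FACS into six bins by GFP to DsRed ratio, PSI derived from sequencing read proportions per bin multiplied by bin number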
study-conditions: c terminus: a fixed tail appended
assay-metric: protein stability index
API note: the answer field is a bare number with no unit suffix.

For orientation, consider the following solved cases.
Problem: Look at this variant and give its reported protein stability index. KSCQAHRLRKCYEVGMVKCGSRRE [C6H]
Result: 2.81

Problem: What about this variant? KSCQACRLFKCYEVGMVKCGSRRE [R9F]
Result: 2.56

Problem: Similarly, KSCQACRLRKCKEVGMVKCGSRRE [Y12K] ?
Result: 2.11

Problem: And the next one, KSCHACRLRKCYEVGMVKCGSRRE [Q4H] ?
Result: 1.83

Problem: Entry KSCQACRLRKCYEVGMVKCGSCRE [R22C] please
Result: 3.45

Problem: Next variant up: KSCQACRLRKCYEVGMVKCWSRRE [G20W]
Result: 1.48

Problem: Try the variant KSCQACRLRKCYEVGMVNCGSRRE [K18N]
Result: 2.39

Problem: Do the same for KRCQACRLRKCYEVGMVKCGSRRE [S2R] please
Result: 2.43

Others:
Problem: Fill in the blank: the reported protein stability index of KSCQVCRLRKCYEVGMVKCGSRRE [A5V] is ____.
Result: 1.93

Problem: How about KSCQACRLRKCGEVGMVKCGSRRE [Y12G] ?
Result: 2.36

Problem: Entry to check: KSCQACRLIKCYEVGMVKCGSRRE [R9I]
Result: 1.82

Problem: KSCQACRLRKCYEVGTVKCGSRRE [M16T] ?
Result: 2.14

Problem: Another variant to check: KSCQAPRLRKCYEVGMVKCGSRRE [C6P]
Result: 3.03

Problem: Cool, now KSCQACRLRKCYEVGMVKCKSRRE [G20K]
Result: 2.41
